Would you mind telling me the reported kon of each entry?
- systemTested: T1, human ROR1-His protein (fused with a His protein tag, Acrobiosystems, RO1-H522y) (human, UniProt Q01973 30-403)
- T1 construct: also called recombinant human ROR1-His protein; not shown: His tag
- T1 sequence (Q01973 30-403 limits assumed): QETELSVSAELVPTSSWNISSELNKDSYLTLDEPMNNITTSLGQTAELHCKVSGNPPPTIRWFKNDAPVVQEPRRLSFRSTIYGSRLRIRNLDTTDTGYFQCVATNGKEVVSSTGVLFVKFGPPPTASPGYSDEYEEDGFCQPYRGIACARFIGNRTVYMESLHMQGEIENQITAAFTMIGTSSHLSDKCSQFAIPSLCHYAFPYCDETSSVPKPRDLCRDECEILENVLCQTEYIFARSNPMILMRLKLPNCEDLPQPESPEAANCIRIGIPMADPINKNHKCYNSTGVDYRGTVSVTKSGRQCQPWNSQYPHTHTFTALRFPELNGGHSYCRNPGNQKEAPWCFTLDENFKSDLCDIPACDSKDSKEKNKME
- assaySummary: SPR Biacore T200, antibody Fc-captured, antigen as analyte
Give bare numbers, in M⁻¹ s⁻¹.

Before answering, review these 2 worked examples.
[[record]]
binder = "single domain antibody AHP15485 (Fc fusion, Alpaca VHH expressed from pcDNA3.4-Fc (HuIgG1) in HEK293-6E; also called AHP15485-VHH; not shown: human IgG1 Fc of the pcDNA3.4-Fc (HuIgG1) expression vector) EVQLVESGGGLAQAGGSLSLSCTASGRSFSNFQMGWFRQAPGKEREFVAASGWSGGPTYYADSVKGRFTISTDDSKKTMYLQMNSLKPEDTAAYYCYEDRVLSGRPVRYWGRGTQVTVSS"
measurement = 225000

[[record]]
binder = "humanized single domain antibody AHP15485-VHH4 (Fc fusion, Humanized VHH expressed from pcDNA3.4-Fc (Human IgG1); not shown: human IgG1 Fc of the pcDNA3.4-Fc (Human IgG1) expression vector) EVQLVESGGGLVQPGGSLRLSCAASGRSFSNFQMGWFRQAPGKEREFVAASGWSGGPTYYADSVKGRFTISTDNSKNTLYLQMNSLRAEDTAVYYCYEDRVLSGRPVRYWGQGTLVTVSS"
measurement = 214000


For each of the binders below, state kon.
1. single domain antibody AHP15773 (Fc fusion, VHH expressed from pcDNA3.4-Fc (HuIgG1); also called AHP15773-VHH; not shown: human IgG1 Fc of the pcDNA3.4-Fc (HuIgG1) expression vector) EVQLVESGGGLVQPGGSLRLSCLASGSDFSDSAMGWYRQAPGKQREFVAAIGAGGITTYADSVKGRFTISRDSAKNIVYLQMSSLSPEDTAVYFCNFAPGWYPPGYQYWGQGTQVTVSS
2. humanized single domain antibody AHP15773-VHH4 (Fc fusion, Humanized VHH expressed from pcDNA3.4-Fc (Human IgG1); not shown: human IgG1 Fc of the pcDNA3.4-Fc (Human IgG1) expression vector) EVQLVESGGGLVQPGGSLRLSCAASGSDFSDSAMGWYRQAPGKQREFVAAIGAGGITTYADSVKGRFTISRDNAKNTLYLQMNSLRAEDTAVYFCNFAPGWYPPGYQYWGQGTLVTVSS

// result
155000
184000
